// data source = patent US20190152992A1

Below: a set of entries, each annotated with reported Kb.
# Target of assay: UniProt P18825
# Sequence (P18825 1-462): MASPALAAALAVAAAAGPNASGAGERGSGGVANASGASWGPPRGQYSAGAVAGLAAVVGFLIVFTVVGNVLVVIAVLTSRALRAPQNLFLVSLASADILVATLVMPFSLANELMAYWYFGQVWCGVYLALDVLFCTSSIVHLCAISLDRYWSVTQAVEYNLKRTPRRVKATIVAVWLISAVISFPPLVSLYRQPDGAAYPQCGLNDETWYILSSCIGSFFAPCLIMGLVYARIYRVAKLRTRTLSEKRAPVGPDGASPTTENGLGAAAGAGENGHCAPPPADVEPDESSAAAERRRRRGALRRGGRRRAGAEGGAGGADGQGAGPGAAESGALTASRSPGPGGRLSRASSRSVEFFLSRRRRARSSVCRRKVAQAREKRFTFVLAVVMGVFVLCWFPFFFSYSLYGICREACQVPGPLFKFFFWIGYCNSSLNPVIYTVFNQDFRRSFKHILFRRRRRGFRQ
# Procedure details: Determination of alpha2C antagonistic activity in vitro (FLIPR calcium assay)
# Experimental parameters: Alpha 2C Adrenaline Kb, Kb calculated from IC50 with the Cheng-Prusoff equation; adrenaline as agonist; CHO cells, human alpha2C
Counter-ions that a name gives are not always drawn.
Reported endpoint: Kb

{"Molecule": "COc1ccc2c(c1OC)C(=O)N([C@H]1CCCN(C[C@H]3COc4ccccc4O3)C1)C2=O [example 66, hydrochloride]", "Endpoint value": "< 0.001 nM"}
{"Molecule": "C[C@H](c1ccccc1)N1C(=O)C(=O)N([C@H]2CCCN(C[C@H]3COc4ccccc4O3)C2)C1=O [example 128]", "Endpoint value": "0.119 nM"}
{"Molecule": "O=C1N(Cc2ccccc2)CCN1[C@H]1CCCN(C[C@H]2COc3ccccc3O2)C1 [example 50]", "Endpoint value": "< 0.01 nM"}
